ASSAY_TARGET: human GcgR (Homo sapiens, UniProt P47871)
Sequence (P47871 26-477): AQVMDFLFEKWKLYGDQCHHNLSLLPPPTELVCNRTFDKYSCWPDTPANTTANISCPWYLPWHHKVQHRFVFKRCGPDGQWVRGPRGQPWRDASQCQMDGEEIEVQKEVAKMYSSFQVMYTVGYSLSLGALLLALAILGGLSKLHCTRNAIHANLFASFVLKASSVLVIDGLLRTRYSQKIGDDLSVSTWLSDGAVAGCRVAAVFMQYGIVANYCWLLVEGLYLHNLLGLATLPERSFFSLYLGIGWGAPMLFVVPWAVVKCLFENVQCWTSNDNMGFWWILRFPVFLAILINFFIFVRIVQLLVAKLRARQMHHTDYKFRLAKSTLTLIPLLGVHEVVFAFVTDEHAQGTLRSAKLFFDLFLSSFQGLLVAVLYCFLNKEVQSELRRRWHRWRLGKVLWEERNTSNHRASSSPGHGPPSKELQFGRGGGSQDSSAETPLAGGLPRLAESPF
ASSAY_INFO: Functional cAMP activity in the presence of 1% HSA
Assay type: cell-based
PROTOCOL_CONDITIONS: read-out: cAMP Rel EC50, hGcgR
Starred links: 1 amine or outer side, 2 acyl side, 3 side chain; linkers in the order of their positions; H or OH if unused. Non-standard residues stand in square brackets, D forms with d. Groups on a side chain read outwards from the residue. *: point of attachment. C20 diacid = O=C(O)CCCCCCCCCCCCCCCCCCC(=O)*; C18 diacid = O=C(O)CCCCCCCCCCCCCCCCC(=O)*; αMePhe(2-F) = C[C@](N)(Cc1ccccc1F)C(=O)O; γGlu = O=C(O)[C@H](CCC(=O)[*:2])N[*:1]; αMe4Pal = C[C@](N)(Cc1ccncc1)C(=O)O; αMeY = C[C@](N)(Cc1ccc(O)cc1)C(=O)O; 4Pal = N[C@@H](Cc1ccncc1)C(=O)O; αMeL = CC(C)C[C@](C)(N)C(=O)O; αMeS = C[C@](N)(CO)C(=O)O; Orn = NCCC[C@H](N)C(=O)O; AEEA = NCCOCCOCC(=O)O; Aib = CC(C)(N)C(=O)O
MEASURE_NAME: pEC50
// scale note: pEC50 = -log10(conc_M); give the bare number

Examples with their reported pEC50 follow.
{"SUBSTANCE": "H-Y[Aib]QGT[αMePhe(2-F)]TSD[4Pal][αMeS]I[αMeL]LD[Orn]K([AEEA-γGlu-γGlu-C18 diacid])AQ[Aib][Orn]FIEYLIEAGPSSGEPPPEEG-NH2 [Example 485]", "pEC50": 6.53}
{"SUBSTANCE": "H-Y[Aib]QGTFTSD[4Pal]SK[αMeL]LDKK([AEEA-γGlu-C18 diacid])AQ[Aib]AFIEYLIE[Aib]GESSGEPPPSGS-NH2 [Example 282]", "pEC50": 5.74}
{"SUBSTANCE": "H-Y[Aib]QGTFTSDFS[Orn][αMeL]LDKK([AEEA-γGlu-C18 diacid])AQ[Aib]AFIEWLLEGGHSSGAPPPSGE-NH2 [Example 122]", "pEC50": 6.26}
{"SUBSTANCE": "H-Y[Aib]QGTFTSDFSK[αMeL]LDKK([AEEA-γGlu-C20 diacid])AQ[Aib]AFIEYLLAGGPSSGEPPPSEG[AEEA]-NH2 [Example 32]", "pEC50": 5.84}

Let us move to another entry and its pEC50.
Req: Item under review: H-Y[Aib]QGT[αMePhe(2-F)]TSD[4Pal][αMeS]I[αMeL]LD[Orn]K([AEEA-γGlu-C18 diacid])AQ[αMe4Pal]EFI[dE][αMeY]LVEGGPSSGAPPPSGS-NH2 [Example 694] . Reported pEC50?
Resp: 6.69
